Every entry's value here was drawn from patent US4496580A.

Please respond with reported TD50 for every item in the list.
Assay: ulcerogenic activity test (GI)
Type: in vivo
Settings: in vivo
Answers are plain numbers, in mg/kg.

compound: O=C(O)Cc1ccc2c(c1)C(=O)c1sccc1CO2 [Compound 1, reference compound]
measuredProperty: TD50
resultValue: 33.7

Let us examine a further case.
Asked: Data request, read-out TD50, for CC(C)OC(=O)Cc1ccc2c(c1)C(=O)c1sccc1CO2 [Compound 2, reference compound]
Given back: 21.6
